# Lookup of reported median seed-adjusted z-score keyed by entry
- testDetails: Novel Modifiers of Survival Motor Neuron (SMN) Protein: Gene Identification via Genome-wide siRNA Screen;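 further: luminescence tracks full-length SMN protein made from the SMN2 reporter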
- particulars: HEK293T SMN2-luciferase reporter, siRNA knockdown, 72 h; actives lie on both sides
In all, about 31,000 sequences went through this assay and about 1,400 (4.5%) were called active. Only a selection was taken, and actives are over-represented in it overall.

| residueString | median seed-adjusted z-score |
| --- | --- |
| GCUUUAUGUGGGCUCAUUATT against RBM39 | -1.82 |
| GGAUCAUACUAGAAGACUATT against TREM1 | 0 |
| CUAUGGACUUCAUCGCUUUTT against EEF1E1 | -1.45 |
| CAUGGGUGCUUAUAAGUCATT against IL1A | 1.12 |
| AGAACUUGAUGCUCCGAGATT against ITGA7 | 0.13 |
| CGUGGACCACUAUCCCAUUTT against RNF123 | 0 |

Entry source: PubChem BioAssay AID1347426
